# Test system: Androgen-induced PSA-luciferase (LNCaP cells)
# Protocol Description: Androgen-induced PSA (6.1 kb)-luciferase reporter assay in LNCaP cells
# Type: cell-based
# Condition Context: Homo sapiens, R1881 (1 nM) 24 h
Experimental Endpoint: IC50 (nM)

Compound: CC(C)(c1ccc(OC[C@H](O)CNS(C)(=O)=O)cc1)c1cc(Cl)c(OC[C@H](O)CCl)c(Cl)c1 [Compound 13a]
Experimental Endpoint: IC50
Measurement Units: nM
Endpoint Result: 1050
--
Compound: CC(C)(c1ccc(OC[C@H](O)CN)cc1)c1cc(Cl)c(OC[C@H](O)CCl)c(Cl)c1 [Compound 12a]
Experimental Endpoint: IC50
Measurement Units: nM
Endpoint Result: 2260
--
Compound: CC(C)(c1ccc(OCC(=O)CNS(C)(=O)=O)cc1)c1cc(Cl)c(OCCCCl)c(Cl)c1 [AA31]
Experimental Endpoint: IC50
Measurement Units: nM
Endpoint Result: 51
--
Compound: CC(C)(c1ccc(OC[C@H](O)CO)cc1)c1cc(Cl)c(OC[C@H](O)CCl)c(Cl)c1 [Compound 1a]
Experimental Endpoint: IC50
Measurement Units: nM
Endpoint Result: 1410

a = COCC(=O)COc1ccc(C(C)(C)c2cc(Cl)c(OCC(O)CCl)c(Cl)c2)cc1 (stereo not drawn) [AA56]
b = CC(O)(CCl)COc1c(Cl)cc(C(C)(C)c2ccc(OCC(=O)CNS(C)(=O)=O)cc2)cc1Cl (stereo not drawn) [AA52]
Ask: # query: argmin of IC50 over a and b Response format: the label of the selected entry.
Result: b
(b: 74 nM, a: 344 nM)

P = COC[C@@H](O)COc1ccc(C(C)(C)c2cc(Cl)c(OC[C@H](O)CCl)c(Cl)c2)cc1 [Compound 5a]
Q = CC(=O)C(=O)Nc1ccc(C(C)(C)c2cc(Cl)c(OCCCCl)c(Cl)c2)cc1 [AA85]
R = CC(C)(c1ccc(OCC(=O)CNS(C)(=O)=O)cc1)c1cc(Cl)c(OCCCl)c(Cl)c1 [AA33]
Ask: Task for the reader: rank each entry by its IC50, from the minimum upward. Give your ranking as a list of the labels in the requested order.
Result: R, Q, P

A = CC(C)(c1ccc(OC[C@H](O)CN2CCOCC2)cc1)c1cc(Cl)c(OC[C@H](O)CCl)c(Cl)c1 [Compound 11a]
B = CC(C)(c1ccc(OC[C@H](O)Cn2ccnc2)cc1)c1cc(Cl)c(OC[C@H](O)CCl)c(Cl)c1 [Compound 9a]
Ask: Which record would sort first by descending IC50, A or B ? Your answer should be the label attached to the chosen record.
Result: B
(B: 3120 nM, A: 1050 nM)
